- measured target: 5-hydroxytryptamine receptor 6 (Homo sapiens, UniProt P50406)
- Sequence (P50406 whole entry): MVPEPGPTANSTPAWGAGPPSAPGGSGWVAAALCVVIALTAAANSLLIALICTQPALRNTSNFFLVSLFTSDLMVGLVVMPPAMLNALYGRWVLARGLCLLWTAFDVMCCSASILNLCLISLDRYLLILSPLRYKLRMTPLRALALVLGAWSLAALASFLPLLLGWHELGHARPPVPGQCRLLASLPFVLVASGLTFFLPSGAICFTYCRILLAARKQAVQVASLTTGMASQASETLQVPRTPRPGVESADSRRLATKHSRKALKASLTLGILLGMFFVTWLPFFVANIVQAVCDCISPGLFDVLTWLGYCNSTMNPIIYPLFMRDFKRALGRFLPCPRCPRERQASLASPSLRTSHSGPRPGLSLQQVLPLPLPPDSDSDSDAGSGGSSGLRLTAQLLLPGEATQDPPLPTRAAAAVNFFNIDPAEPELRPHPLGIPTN
- assay info: Inhibitory concentration against 5-HT stimulated cAMP production in HeLa cells stably transfected with human 5-HT6 receptor
endpoint label: IC50 (nM)
Give your result in nM as a bare value.

See these solved cases before continuing.
O=S(=O)(c1ccccc1)n1cc(C2=CCNCC2)c2ccccc21: 43
COc1ccc2c(c1)c(C1=CCNCC1)cn2S(=O)(=O)c1ccc2ccccc2c1: 4.1
Nc1ccc(S(=O)(=O)n2cc(C3CCNCC3)c3cc(F)ccc32)cc1: 1.3

Which measured IC50 belongs to CN1CC=C(c2cn(S(=O)(=O)c3cccc(Cl)c3)c3ccccc23)CC1 , tested on 5-hydroxytryptamine receptor 6 (Homo sapiens, UniProt P50406)?
9.4

Please answer likewise for Nc1ccc(S(=O)(=O)n2cc(C3=CCNCC3)c3ccc(Cl)cc32)cc1
11.2

Now this one: Nc1ccc(S(=O)(=O)n2cc(C3=CCNCC3)c3cc(F)ccc32)cc1
9.7

Next up: O=S(=O)(c1ccc(Cl)s1)n1cc(C2=CCNCC2)c2ccccc21
14.1

For CN1CC=C(c2cn(S(=O)(=O)c3ccccc3Cl)c3ccccc23)CC1 then?
0.7

Same read-out for O=S(=O)(c1ccc(F)cc1)n1cc(C2=CCNCC2)c2cc(F)ccc21 ?
31

What about this compound? CN1CC=C(c2cn(S(=O)(=O)c3ccccc3)c3ccccc23)CC1
13.8
